# credit: PubChem BioAssay

experiment: viability gain of MRP-1-high H69AR cells under doxorubicin, pilot screen, MRP-1 activator project, CellTiter-Glo, duplicate (AID 807); conditions: H69AR viability with doxorubicin, CellTiter-Glo luminescence; at 10 µM; active compounds read high;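 note: compound pretreatment 18-22 h then 72 h combined with doxorubicin; 0% = doxorubicin alone and 100% = vehicle without doxorubicin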
Active and inactive are the calls of the source.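 Rule for the calls: active = viability increase at or above a cutoff of the median across tested compounds plus 3 SD (cut at about 8.5% in these data, passing the limit was not always enough); inconclusive = some gains above the cutoff, reason not given; inactive = the rest.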
QUANTITY KIND: viability increase

Data point: c1ccc(Nc2nc3ccccc3n3cnnc23)cc1 ; viability increase = -5.23% (inactive)

Data point: Cc1ccccc1-c1nc(CS(=O)CC(=O)NCCN2CCOCC2)c(C)o1 (stereo unspecified) ; viability increase = -1.4% (inactive)

Data point: COc1ccccc1N1CCN(CC(=O)c2ccc3ccn(C(C)=O)c3c2)CC1 ; viability increase = -5.06% (inactive)

Data point: O=C(CSc1ccccn1)c1ccc2c(c1)OCO2 ; viability increase = -0.21% (inactive)

Data point: O=C(C1CC1)N1CCc2cc(Br)cc(S(=O)(=O)NC3CCCCC3)c21 ; viability increase = 1.71% (inactive)

Data point: CN(C)S(=O)(=O)N1CCC(Cc2ccccc2)CC1 ; viability increase = -0.78% (inactive)

----------
assay: growth suppression of beta-catenin knockout HCT116, pilot screen, human colon tumor cells (AID 823); conditions: CellTiter-Glo, 60 h, at 10 µM;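 note: 0% = wells killed by 20 µM Hyamine and 100% = untreated DMSO cell wells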
Results filed as inconclusive are left out. Active and inactive are the calls of the source.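 Rule for the calls: active = cell viability at or below a set limit in both duplicate runs, the limit being the all-compound median minus 4 SD (cut at about 23% in these data, passing the limit was not always enough); inconclusive = no clear call, values can overlap the other calls; inactive = the rest.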
Use one of these outcomes when replying: active, inactive

Test call, this compound: CCOC(=O)C1CCN(C(=O)CN(c2ccc(OC)c(OC)c2)S(=O)(=O)c2ccccc2)CC1
inactive

Test call, this compound: COc1ccc(NC(C)=O)c2nc(C)c(C)nc12
inactive

Test call, this compound: Cc1cccc(OCCSc2cc(C)nc(N)n2)c1
inactive

Test call, this compound: CC(C)Sc1oc(-c2ccco2)nc1S(=O)(=O)c1ccc(F)cc1
inactive

Test call, this compound: O=C1CCCC/C1=C\Nc1ccc(Cl)cn1
inactive

Test call, this compound: C1CCC(Nc2nnnn2C2CCCCC2)CC1
inactive

Test call, this compound: Cc1cc(N2C(=O)C3CC=CCC3C2=O)cc(C)c1Br (stereo not given)
inactive

Test call, this compound: COCc1cc(C)nc(N2CCN(c3ccccc3)CC2)c1C#N
inactive

Test call, this compound: CSC1=N/C(=C\c2ccccc2F)C(=O)S1
inactive

Test call, this compound: C=CCOC(=O)C1=C(C)N=C2SCCC(=O)N2C1c1ccc(OC(=O)c2ccco2)cc1 (stereo not given)
inactive

Test call, this compound: CCOC(=O)N1CCN(C(=O)C(NC(=O)C2CCC(C)CC2)C(C)C)CC1 (stereo not given)
inactive

Test call, this compound: O=C(CCNS(=O)(=O)c1cccc2nsnc12)NC1CCN(Cc2ccccc2)CC1
inactive

Test call, this compound: COc1ccc(/C(N)=C/C(=O)C(C)(C)C)cc1
inactive

Test call, this compound: O=C(Cn1ncc2c1-c1ccccc1OC2)Nc1nc2ccccc2s1
inactive

Test call, this compound: Cc1ccc(C(=O)NCc2ccc3c(c2)OCO3)cc1N1CCCC1=O
inactive

Test call, this compound: CC1(C)CC2CC(C)(CN2C(=O)c2cc(-c3ccccc3O)on2)C1 (stereo not given)
inactive

Test call, this compound: COC(=O)c1ccccc1NC(NC(=O)c1ccco1)C(=O)c1ccc(C)cc1 (stereo not given)
inactive

Test call, this compound: Cc1nc2sc(C(c3ccccc3)N3CCN(CCO)CC3)c(O)n2n1 (stereo not given)
inactive

Test call, this compound: O=C(Nc1c(F)c(F)c(F)c(F)c1F)C1CCCCC1
inactive

Test call, this compound: Clc1cccc(CSc2nnc(-c3ccccn3)n2Cc2ccco2)c1
inactive

Test call, this compound: CCNC(=O)Cc1ccc(NS(=O)(=O)c2ccc(F)cc2)cc1
inactive

Test call, this compound: Cc1ccc(/C(O)=C2/C(=O)C(=O)N(CCN3CCOCC3)C2c2cccnc2)cc1 (stereo not given)
inactive

Test call, this compound: CCOc1ccc(-c2nnc3ccc(SCC(=O)N4CCCCC4)nn23)cc1
inactive

Test call, this compound: O=C(Nn1nnnc1Nc1ccccc1)C12CC3CC(CC(C3)C1)C2
inactive

Test call, this compound: CCOC(=O)Cn1c(=O)oc2cc(S(=O)(=O)NCC3CCCO3)ccc21 (stereo not given)
inactive

Test call, this compound: Cc1cccc(OCCn2c(=O)n(C)c3ccccc32)c1
inactive

Test call, this compound: COc1ccc(-c2nc(CS(=O)CC(=O)NCc3cccnc3)c(C)o2)cc1OC (stereo not given)
inactive

Test call, this compound: Cn1c(C(=O)N2CCC(C(=O)N3CCOCC3)CC2)cc2sccc21
inactive

Test call, this compound: COC(=O)C1=C(C)NC(=O)CC1c1cccc(Cl)c1Cl (stereo not given)
inactive

Test call, this compound: CCN1C(=O)NC(c2cccnc2)C(C(=O)OC)=C1C (stereo not given)
inactive

Test call, this compound: CCC(Sc1nccn1C)C(=O)Nc1nnc(C)s1 (stereo not given)
inactive

Test call, this compound: COc1ccc(NCCNc2ccc(OC)cc2)cc1
inactive

Test call, this compound: O=C(C1CCN(S(=O)(=O)c2cccc3cccnc23)CC1)N1CCN(Cc2ccccc2)CC1
inactive

Test call, this compound: Cc1cc(C)nc(NS(=O)(=O)c2ccc(NC(=O)c3ccc4c(c3)OCO4)cc2)n1
inactive

Test call, this compound: COc1ccc(C(C#N)(CCC#N)CCC#N)cc1OC
inactive

Test call, this compound: COc1ccc(OC)c(CCNC(=O)Cn2sc3nc(C)cc(C)c3c2=O)c1
active

Test call, this compound: Cc1nc(C)c(C(=O)Nc2ccccc2)s1
inactive

Test call, this compound: CCCCC(CC)CNC(=O)c1[nH]c(C)c(C(C)=O)c1C (stereo not given)
inactive

Test call, this compound: COc1ccc(C2CC(c3ccccc3C)n3nc(N)nc3N2)cc1 (stereo not given)
inactive

Test call, this compound: CC(=O)Oc1ccc(N2C(=O)CC(N3CCOCC3)C2=O)cc1 (stereo not given)
inactive

Test call, this compound: COc1ccc(N2CCN(C(=O)c3ccc(CNc4c(N5CCOCC5)c(=O)c4=O)cc3)CC2)cc1
inactive

Test call, this compound: CCN1CCN(Cc2nc3c(c(=O)n(C)c(=O)n3C)n2Cc2ccc(Cl)cc2Cl)CC1
inactive

Test call, this compound: COc1ccc(N(CC(=O)Nc2cc(OC)ccc2OC)S(=O)(=O)c2c(C)nn(C)c2C)cc1
inactive

Test call, this compound: COc1cccc(-c2nc(CS(=O)(=O)CC(=O)NCCC(C)C)c(C)o2)c1
inactive

Test call, this compound: COc1cccc(C(=O)Nc2nnc(-c3ccc(F)cc3)o2)c1
inactive

----------
assay: OD615 S. cerevisiae growth inhibition, permissive medium, pilot counter-assay, permissive growth control for S. cerevisiae lifespan shortening project (AID 705); conditions: OD615, 24 h, at 10 µM, active compounds read high
Exercise: state measured growth inhibition for each of the molecules provided.
# unit: % | format: bare number

Data point: Nc1c(C(=O)c2ccc(Br)s2)oc2ccccc12 ; growth inhibition = -9.21

Data point: O=C(NCCN1CCCCCC1)C1CCC(CNS(=O)(=O)c2cccc3cccnc23)CC1 (stereo unspecified) ; growth inhibition = -8.39

Data point: CCn1nnc(NC(=O)c2ccc(C(C)(C)C)cc2)n1 ; growth inhibition = -24.7

Data point: O=c1[nH]c2ccccc2n1Cc1ccc(F)cc1 ; growth inhibition = -5.88

Data point: COc1ccc(OC)c(NC(=O)CNC(=O)Cn2ccc3ccccc3c2=O)c1 ; growth inhibition = -9.38

Data point: Cc1coc2c(C)c3oc(=O)c4c(c3cc12)CCCC4 ; growth inhibition = -10.3

----------
assay: Restrictive medium S. cerevisiae growth inhibition, OD615, pilot screen of yeast lifespan reduction project, restrictive growth control (AID 706); conditions: OD615, 48 h, at 10 µM, active compounds read high;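 note: modified DeaD lifespan yeast strain shifted to restrictive glucose medium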
QUANTITY KIND: growth inhibition (%)
# unit: % | format: bare number

Data point: COc1ccc(OC)c(N(CC(=O)NC2CC2)S(=O)(=O)c2ccc(C)cc2)c1 ; growth inhibition = -20.4

Data point: Cn1c(C(=O)NCCCN2CCCC2=O)cc2c(=O)n(C)c3ccccc3c21 ; growth inhibition = -1.63

Data point: Cc1ccc(S(=O)(=O)Nc2ccc3nc(N)sc3c2)cc1 ; growth inhibition = 13.4

Data point: COc1ccc(S(=O)(=O)N2CCN(c3c(C)cccc3C)CC2)cc1OC ; growth inhibition = -7.95

Data point: CCOc1cc(N2CCOCC2)c(OCC)cc1NC(=O)c1cc(-c2ccco2)nc2ccccc12 ; growth inhibition = -4.63

Data point: COc1ccc(OC)c(CN2C(=O)c3ccccc3C2C(=O)NCc2cccnc2)c1 (stereo unspecified) ; growth inhibition = 2.58

Data point: CCC(Sc1nncn1C)C(=O)Nc1nnc(-c2ccc(Cl)cc2)s1 (stereo unspecified) ; growth inhibition = 32.9

Data point: CCCCCSc1nc2c(c(=O)[nH]c(=O)n2C)n1CC ; growth inhibition = 1.94

Data point: CCOc1ccc(N(CC(=O)Nc2ccc3c(c2)OCCO3)S(=O)(=O)c2c(C)noc2C)cc1 ; growth inhibition = -0.165

Data point: Cc1ccc(C(=O)Nc2ccc(S(=O)(=O)N3CCN(C)CC3)cc2)o1 ; growth inhibition = -0.785

Data point: COc1ccccc1NC(=O)Nc1ccc(Br)cn1 ; growth inhibition = -15.5
